# Tested on: SF-539
# Experiment Summary: NCI tumour cell line growth inhibition, 48 h
Calls of active or inactive are those of the source. Cut-off read from the data, not from the text of the source: active = GI50 up to about 1.1 µM and inactive = higher.
Select the matching outcome among class 1 for active, class 0 for inactive

Challenge: Hi team, can someone confirm the assay call for "C/C(=N\NC(=S)N1CCN(c2ccccn2)CC1)c1ccccn1" ?
Response given: class 1

Challenge: Hi team, can someone confirm the assay call for Cc1cn(C2CC(N=[N+]=[N-])C(COP(=O)(O)OCC3OC(n4cc(F)c(=O)[nH]c4=O)CC3O)O2)c(=O)[nH]c1=O (stereo not given) ?
Response given: class 1

Challenge: Hi team, can someone confirm the assay call for "N#CC(C#N)=c1c2nsnc2c(=C(C#N)C#N)c2nsnc12" ?
Response given: class 0

Challenge: Hi team, can someone confirm the assay call for "CCCCCCCCCCCCCCC[C@@H](O)C[N+](C)(C)CCO" ?
Response given: class 0

Challenge: Hi team, can someone confirm the assay call for O=C(ON=C1c2ccccc2C(Br)C(Br)c2ccccc21)c1ccccc1 (stereo not given) ?
Response given: class 0

Challenge: Hi team, can someone confirm the assay call for COc1cc2c(cc1OC)-c1c(oc3cc(OC4OC(CO)C(O)C(O)C4O)c(OC)cc3c1=O)C(O)O2 (stereo not given) ?
Response given: class 0

Challenge: Hi team, can someone confirm the assay call for "Oc1cccnc1/C=N/OCc1ccccc1" ?
Response given: class 0

Challenge: Hi team, can someone confirm the assay call for "CCN(CC)c1ccc(/N=C2/C=CC(=O)c3ncccc32)c(C)c1" ?
Response given: class 0

Challenge: Hi team, can someone confirm the assay call for "CC(=O)C(C)(C)CCC(C)(C)C(C)=O" ?
Response given: class 0

Challenge: Hi team, can someone confirm the assay call for "CN(C)C1(C#N)CCC2(CC1)OCCO2" ?
Response given: class 0

Challenge: Hi team, can someone confirm the assay call for COc1ccc(C(OC(C)=O)C2C(=C(C#N)C#N)c3ccccc3C2=C(C#N)C#N)cc1 (stereo not given) ?
Response given: class 0

Challenge: Hi team, can someone confirm the assay call for "NCc1ccc(O)c(O)c1O" ?
Response given: class 0

Challenge: Hi team, can someone confirm the assay call for "COC(=O)/N=[N+](\[O-])C(c1ccc(Cl)cc1)c1ccc(Cl)cc1" ?
Response given: class 0

Challenge: Hi team, can someone confirm the assay call for CC(C(=O)c1ccccc1)C1(O)C(=O)Nc2ccc(Cl)cc21 (stereo not given) ?
Response given: class 0

Challenge: Hi team, can someone confirm the assay call for "O=C(Nc1c(O)[nH]c(=S)[nH]c1=O)c1ccccc1" ?
Response given: class 0

Challenge: Hi team, can someone confirm the assay call for "Cc1ccc(/N=C2\C(=N/c3ccc(C)cc3)N(c3ccc(C)cc3)C(=S)N2C(=O)c2ccccc2)cc1" ?
Response given: class 0

Challenge: Hi team, can someone confirm the assay call for COc1cc(Br)c(CC2C3=C(CCN2C(=O)C2CCC2)CC(=O)CC3)cc1O (stereo not given) ?
Response given: class 0

Challenge: Hi team, can someone confirm the assay call for N#CC1(C#N)NC(c2cccnc2)C(C#N)(C#N)NC1c1cccnc1 (stereo not given) ?
Response given: class 0

Challenge: Hi team, can someone confirm the assay call for "Cc1ccc(C(=O)N/N=C(\N=N\c2ccccc2C(=O)O)c2ccc(N(C)C)cc2)cc1" ?
Response given: class 0

Challenge: Hi team, can someone confirm the assay call for "C=Cc1cncc(C#N)c1CCc1c(C#N)cncc1C=C" ?
Response given: class 0

---

# System: Malme-3M
# Experiment Summary: NCI tumour cell line growth inhibition, 48 h
Calls of active or inactive are those of the source. Rule as the data show it: active = GI50 up to about 1.1 µM and inactive = higher.
Readout Type: GI50

Item: CC(C)C1COC(c2ccc3ccccc3c2-c2c(O[Si](C)(C)C(C)(C)C)ccc3ccccc23)=N1 (configuration not stated) | GI50: 18.4 µM (inactive)

Item: "CC(C)=CCc1c(O)cc2oc(-c3ccc(O)cc3O)cc(=O)c2c1O" | GI50: 25.3 µM (inactive)

Item: COc1cccc(C2c3cc4c(cc3OC(Nc3ccccc3)C2C)OCO4)c1OC (configuration not stated) | GI50: 6.31 µM (inactive)

Item: Cc1ccccc1OC(C)C(=O)NN1C(=O)CSC1c1ccccc1 (configuration not stated) | GI50: > 100 µM (inactive)

Item: O=C1C=CC=CC2CC=C[C@@H](O)C12 (some centres not stated) | GI50: 21.3 µM (inactive)

Item: "N=C(N)NCCN1CC2CCC(CC2)C1" | GI50: > 100 µM (inactive)

Item: "Cc1nc2c(N)ncnc2o1" | GI50: > 100 µM (inactive)

Item: CC1(C)CCCCCCCCCC(C)(CCCO)C1=O (configuration not stated) | GI50: 16.8 µM (inactive)

Item: "O=C(/C=C/c1cccc([N+](=O)[O-])c1)c1cccnc1" | GI50: > 89.9 µM (inactive)

Item: "CN(C)c1[se]nc2c1c(=O)n(C)c(=O)n2C" | GI50: > 100 µM (inactive)

Item: "O=C(Nc1c(O)[nH]c(=S)[nH]c1=O)c1ccccc1" | GI50: > 100 µM (inactive)

Item: "COc1ccc2c(C(=O)O)cc3ccccc3c2c1OC" | GI50: 21.9 µM (inactive)

Item: "CN(C)C1(C#N)CCC2(CC1)OCCO2" | GI50: > 100 µM (inactive)

Item: "Cc1cc(N)c2cc(NC(=O)CCCCCCCCC(=O)Nc3ccc4nc(C)cc(N)c4c3)ccc2n1" | GI50: 25.4 µM (inactive)

Item: "CC(/C=N/N(C)C1=NCCCN1)=N/N(C)C1=NCCCN1" | GI50: > 100 µM (inactive)

Item: CC1CCc2c(c(CC3CC(=O)NC(=O)C3)nn2-c2ccccc2)C1 (configuration not stated) | GI50: > 100 µM (inactive)

Item: "CCOC(=O)c1c(N2CCCC2)[nH]c(=O)c(C(c2ccco2)c2c(O)c(C(=O)OCC)c(N3CCCC3)[nH]c2=O)c1O" | GI50: > 100 µM (inactive)

---

# System: HT-29
# Experiment Summary: NCI tumour cell line growth inhibition, 48 h
Calls of active or inactive are those of the source. No stated cut-off is given here; in the data, active = GI50 up to about 1.1 µM and inactive = higher.
Would you mind telling me the reported GI50 of each entry?

So the reported GI50 for COc1ccc(-c2c(C#N)c(O)n(C3OC(COC(C)=O)C(OC(C)=O)C(OC(C)=O)C3OC(C)=O)c(=S)c2C#N)cc1 (stereo not given) , on HT-29, turned out to be > 100 µM (inactive)

So the reported GI50 for COc1ccc2c(c1)CC1Cc3ccccc3CCN1C2 (stereo not given) , on HT-29, turned out to be 32.4 µM (inactive)

So the reported GI50 for "Clc1ccc(-c2c3nc(c(-c4ccc(Cl)cc4)c4ccc([nH]4)c(-c4ccc(Cl)cc4)c4nc(c(-c5ccc(Cl)cc5)c5ccc2[nH]5)C=C4)C=C3)cc1" , on HT-29, turned out to be > 100 µM (inactive)

So the reported GI50 for CC1=NN(c2ccccc2)C(=O)C1/N=N/c1ccc([As](=O)(O)O)c(O)c1 (stereo not given) , on HT-29, turned out to be > 100 µM (inactive)

So the reported GI50 for COc1cc(-c2[o+]c3cc(O)cc(OC4OC(CO)C(O)C(O)C4O)c3cc2OC2OC(CO)C(O)C(O)C2O)cc(OC)c1O (stereo not given) , on HT-29, turned out to be > 100 µM (inactive)

---

Would you mind telling me the reported GI50 of each entry?
# Test system: SF-295
# Experiment Summary: NCI tumour cell line growth inhibition, 48 h
Active and inactive are the calls of the source. Cut-off read from the data, not from the text of the source: active = GI50 up to about 1.1 µM and inactive = higher.

So the reported GI50 for COc1cccc(C2c3cc4c(cc3OC(Nc3ccccc3)C2C)OCO4)c1OC (stereo unspecified) , on SF-295, turned out to be 5.55 µM (inactive)

So the reported GI50 for "CC(=O)/C=C/C=C(\C)CC/C=C(\C)CC(C)C" , on SF-295, turned out to be 30.8 µM (inactive)

So the reported GI50 for "CN[C@H](C)[C@@H](OC)c1ccccc1" , on SF-295, turned out to be > 100 µM (inactive)

So the reported GI50 for "C=CCP(=O)(CC=C)C(Cl)Cl" , on SF-295, turned out to be > 100 µM (inactive)

So the reported GI50 for "CC(=O)O[C@@H]1[C@H]2O[C@H]2[C@H]2O[C@@]2(COC(=O)c2ccccc2)[C@H]1OC(C)=O" , on SF-295, turned out to be > 100 µM (inactive)

So the reported GI50 for "COc1ccc2c(c1)[n+]([O-])c(-c1ccc([N+](=O)[O-])cc1)c(N)[n+]2[O-]" , on SF-295, turned out to be > 100 µM (inactive)

---

# System: A549
# Experiment Summary: NCI tumour cell line growth inhibition, 48 h
Calls of active or inactive are those of the source. Cut-off read from the data, not from the text of the source: active = GI50 up to about 1.1 µM and inactive = higher.
Select the matching outcome among active, inactive

Challenge: Hi team, can someone confirm the assay call for "O=S(=O)(O)c1ccc2c(/N=N/c3ccc(/N=N/c4ccccc4)cc3)c(O)c(S(=O)(=O)O)cc2c1" ?
Response given: inactive

Challenge: Hi team, can someone confirm the assay call for "CC/C(Cl)=N\OC(=O)Nc1ccc(F)c([N+](=O)[O-])c1" ?
Response given: inactive

Challenge: Hi team, can someone confirm the assay call for Nc1ccc2[nH]c(C(=O)N3CC(CCl)c4c3cc(N)c3ccccc43)cc2c1 (configuration not stated) ?
Response given: active

Challenge: Hi team, can someone confirm the assay call for "C[C@]12CCC3=NCCN3C1=CC[C@@H]1[C@@H]2CC[C@@]2(C)[C@H]1CC[C@]2(C)O" ?
Response given: inactive

Challenge: Hi team, can someone confirm the assay call for "N=C(N)NS(=O)(=O)c1ccc(NCc2c3ccccc3[n+]([O-])c3ccccc23)cc1" ?
Response given: inactive

Challenge: Hi team, can someone confirm the assay call for "COC(=O)/N=[N+](\[O-])C(c1ccc(Cl)cc1)c1ccc(Cl)cc1" ?
Response given: inactive

Challenge: Hi team, can someone confirm the assay call for "C=C(C(=O)C(=O)Oc1ccc(Cl)cc1)C(=O)c1ccc(C)cc1" ?
Response given: inactive

Challenge: Hi team, can someone confirm the assay call for "CCC/C(Cl)=N\OC(=O)Nc1ccc(Br)cc1" ?
Response given: inactive

Challenge: Hi team, can someone confirm the assay call for "O=C1c2ccccc2-c2nc3ccncc3n21" ?
Response given: inactive

Challenge: Hi team, can someone confirm the assay call for COC(=O)CNC(=O)CCC(C)[C@H]1CCC2C3C(C[C@H](OC(C)=O)[C@@]21C)[C@@]1(C)CCC2(C[C@H]1C[C@H]3OC(C)=O)OOC1(CC[C@]3(C)C4C[C@H](OC(C)=O)[C@@]5(C)C(CC[C@@H]5C(C)CCC(=O)NCC(=O)OC)C4[C@H](OC(C)=O)C[C@@H]3C1)OO2 (some centres not stated) ?
Response given: active

Challenge: Hi team, can someone confirm the assay call for "C/C(CCN(C)C)=N/O" ?
Response given: inactive

Challenge: Hi team, can someone confirm the assay call for "C=CCN1C(=O)/C(=C/c2ccco2)N=C1SC/C=C/C" ?
Response given: inactive
